From: paper PMC12374861

So I've got a bunch of substances here, and I need their Viability (%) of E-11 cells, mean values.
- Tested on: E-11 cells
- Assay Summary: MTT cytotoxicity test on E-11 cells
- Type: cell-based
- Applied Conditions: peptide 0.03704 mg/mL, 24 h at 25 °C, mean of n = 3, control = 100.0
Ends that are not written are not given here.
Give bare numbers, in %.

Recorded results for 6 substances are shown here.
{"Substance": "LLWTSSGKEQR-NH2 [Peptide P6]", "Measured": 138.9}
{"Substance": "VSKASTVTGFGR-NH2 [Peptide P2]", "Measured": 111.5}
{"Substance": "ALQATRGAVVAKWW-NH2 [Peptide P5]", "Measured": 116.4}
{"Substance": "PRLGHAARIFQRYA-NH2 [Peptide P3]", "Measured": 96.3}
{"Substance": "SVRLSVPSLETPEETTA-NH2 [Peptide P7]", "Measured": 138.9}
{"Substance": "PDPTDNDHTFD-NH2 [Peptide P4]", "Measured": 92.4}

-- ask Request the reported Viability (%) of E-11 cells, mean associated with TTKAANPQPRRRANNRRRS-NH2 [Peptide P1]
-- reply 100.1

###

So I've got a bunch of substances here, and I need their Viability (%) of E-11 cells, mean values.
- Test system: E-11 cells
- Assay Summary: MTT cytotoxicity test on E-11 cells
- Assay type: cell-based
- Applied Conditions: peptide 0.01234 mg/mL, 24 h at 25 °C, mean of n = 3, control = 100.0
Ends that are not written are not given here.
Express your answer as a number followed by its unit.

Recorded results for 5 substances are shown here.
{"Substance": "VSKASTVTGFGR-NH2 [Peptide P2]", "Measured Target": "E-11 cells", "Measured": "121.8%"}
{"Substance": "ALQATRGAVVAKWW-NH2 [Peptide P5]", "Measured Target": "E-11 cells", "Measured": "116.7%"}
{"Substance": "SVRLSVPSLETPEETTA-NH2 [Peptide P7]", "Measured Target": "E-11 cells", "Measured": "125.7%"}
{"Substance": "PDPTDNDHTFD-NH2 [Peptide P4]", "Measured Target": "E-11 cells", "Measured": "102.6%"}
{"Substance": "PRLGHAARIFQRYA-NH2 [Peptide P3]", "Measured Target": "E-11 cells", "Measured": "93.2%"}

Hi team, please reply with Viability (%) of E-11 cells, mean for each item in this list.
1. TTKAANPQPRRRANNRRRS-NH2 [Peptide P1]
2. LLWTSSGKEQR-NH2 [Peptide P6]

-- reply
["129.9%", "139.2%"]

###

- Test system: RGNNV
- Assay Summary: RGNNV in vivo bath challenge of European sea bass with peptide injection after infection
- Set-up: species or system European sea bass (Dicentrarchus labrax)
- Applied Conditions: juvenile sea bass, bath infection 3.16 × 10^4 TCID₅₀ RGNNV/mL for 2 h, then intramuscular injection 1 µg peptide/g; 23 dpi; infected PBS group 63.6% survival
Ends that are not written are not given here.
Recorded Endpoint: Relative percent survival (RPS) (%)
Answers are plain numbers, in %.

Recorded results for 3 substances are shown here.
{"Substance": "PDPTDNDHTFD-NH2 [Peptide P4]", "Unit Name": "%", "Measured": 81.3}
{"Substance": "VSKASTVTGFGR-NH2 [Peptide P2]", "Unit Name": "%", "Measured": 43.8}
{"Substance": "SVRLSVPSLETPEETTA-NH2 [Peptide P7]", "Unit Name": "%", "Measured": 68.8}

Switching to the query record.
-- ask Request the reported Relative percent survival (RPS) associated with PRLGHAARIFQRYA-NH2 [Peptide P3]
-- reply 62.5
